- Tested on: NCI-H23
- Test Details: Growth inhibition of human NCI-H23 cells after 48 hrs by sulforhodamine B assay
- Format: functional
- Condition Set: NCI-H23, 48 h
Recorded GI50 for the following compounds
Kindly format the answer as number then unit.

Entry COc1cccc(C2C(C#N)=C(N)Oc3cc4c(cc32)OCO4)c1 (centres undefined) needs its GI50 filled in; supply it.
97.7 nM

Entry COc1cc(C2C(C#N)=C(N)Oc3cc(O)ccc32)cc(OC)c1OC (centres undefined) needs its GI50 filled in; supply it.
813 nM

Entry COc1ccc2c(c1)OC(N)=C(C#N)C2c1cc(OC)c(OC)c(OC)c1 (racemic) needs its GI50 filled in; supply it.
36.5 nM

Entry COc1cccc(C2C(C#N)=C(N)Oc3cc(OC)ccc32)c1 (centres undefined) needs its GI50 filled in; supply it.
40 nM

---

- Test system: CAKI-1
- Test Details: Growth inhibition of human CAKI-1 cells after 48 hrs by sulforhodamine B assay
- Format: functional
- Condition Set: CAKI-1, 48 h
Recorded GI50 for the following compounds
State just the number; it will be interpreted in µM.

Some compounds with known GI50 results, for comparison:
- Compound: "COc1ccc2c(c1)OC(N)=C(C#N)C2c1cc(OC)c(OC)c(OC)c1 (racemic)"
  Unit Annotation: "µM"
  Observed: 0.146
- Compound: "COc1cccc(C2C(C#N)=C(N)Oc3cc(OC)ccc32)c1 (centres undefined)"
  Unit Annotation: "µM"
  Observed: 0.0426
- Compound: "COc1cccc(C2C(C#N)=C(N)Oc3cc4c(cc32)OCO4)c1 (centres undefined)"
  Unit Annotation: "µM"
  Observed: 0.0409

// below: GI50 requested for another compound
Entry COc1cc(C2C(C#N)=C(N)Oc3cc(O)ccc32)cc(OC)c1OC (centres undefined) needs its GI50 filled in; supply it.
0.885

---

- Test system: Paracentrotus lividus
- Test Details: Antimitotic microtubule destabilizing activity in Paracentrotus lividus L embryos assessed as induction of cleavage alteration
Measured Property: EC (µM)
State just the number; it will be interpreted in µM.

Some compounds with known EC results, for comparison:
- Compound: "COc1ccc2c(c1)OC(N)=C(C#N)C2c1ccc(OC)c(OC)c1 (stereo not given)"
  Measured On: "Paracentrotus lividus"
  EC, µM: 0.05
- Compound: "COc1cc([C@@H]2c3cc4c(cc3[C@H](O)[C@H]3COC(=O)[C@H]23)OCO4)cc(OC)c1OC"
  Measured On: "Paracentrotus lividus"
  EC, µM: 0.02

// below: EC requested for another compound
Entry `COc1cccc([C@@H]2C(C#N)=C(N)Oc3cc(OC)ccc32)c1` needs its EC filled in; supply it.
0.05

---

- System: Paracentrotus lividus
- Test Details: Antimitotic microtubule destabilizing activity in Paracentrotus lividus L embryos assessed as induction of cleavage alteration
Measured Property: EC (µM)
State just the number; it will be interpreted in µM.

Some molecules with known EC results, for comparison:
- Molecule: "COc1ccc2c(c1)OC(N)=C(C#N)C2c1cc(OC)c(OC)c(OC)c1 (racemic)"
  Observed: 0.01
- Molecule: "COc1ccc2c(c1)OC(N)=C(C#N)[C@H]2c1cc(OC)c(OC)c(OC)c1"
  Observed: 2
- Molecule: "COc1cccc(C2C(C#N)=C(N)Oc3cc4c(cc32)OCO4)c1 (stereo not given)"
  Observed: 0.005

Entry COc1ccc2c(c1)OC(N)=C(C#N)C2c1cc2c(c([N+](=O)[O-])c1)OCCO2 (stereo not given) needs its EC filled in; supply it.
0.02

Entry COc1ccc(OC)c(C2C(C#N)=C(N)Oc3cc(O)ccc32)c1 (stereo not given) needs its EC filled in; supply it.
1

Entry `COc1ccc2c(c1)OC(N)=C(C#N)[C@@H]2c1cc(OC)c(OC)c(OC)c1` needs its EC filled in; supply it.
0.005

---

Recorded GI50 for the following molecules
- Test system: SN12C
- Test Details: Growth inhibition of human SN12C cells after 48 hrs by sulforhodamine B assay
- Format: functional
State just the number; it will be interpreted in nM.

Some molecules with known GI50 results, for comparison:
- Molecule: "COc1ccc2c(c1)OC(N)=C(C#N)C2c1cc(OC)c(OC)c(OC)c1 (racemic)"
  Measured Property: "GI50"
  Observed: 58.7
- Molecule: "COc1cccc(C2C(C#N)=C(N)Oc3cc4c(cc32)OCO4)c1 (centres undefined)"
  Measured Property: "GI50"
  Observed: 79.2
- Molecule: "COc1cc(C2C(C#N)=C(N)Oc3cc(O)ccc32)cc(OC)c1OC (centres undefined)"
  Measured Property: "GI50"
  Observed: 790

// below: GI50 requested for another molecule
Entry COc1cccc(C2C(C#N)=C(N)Oc3cc(OC)ccc32)c1 (centres undefined) needs its GI50 filled in; supply it.
69.3

---

Recorded GI50 for the following compounds
- System: MDA-MB-435
- Test Details: Growth inhibition of human MDA-MB-435 cells after 48 hrs by sulforhodamine B assay
- Type: functional
- Condition Set: MDA-MB-435, 48 h
State just the number; it will be interpreted in µM.

- Compound: "COc1ccc2c(c1)OC(N)=C(C#N)C2c1cc(OC)c(OC)c(OC)c1 (racemic)"
  Observed: 0.015
- Compound: "COc1cccc(C2C(C#N)=C(N)Oc3cc4c(cc32)OCO4)c1 (centres undefined)"
  Observed: 0.0203

// below: GI50 requested for another compound
Entry COc1cc(C2C(C#N)=C(N)Oc3cc(O)ccc32)cc(OC)c1OC (centres undefined) needs its GI50 filled in; supply it.
0.136

---

Recorded GI50 for the following molecules
- Test Details: Growth inhibition of human HCC2998 cells after 48 hrs by sulforhodamine B assay
- Assay type: functional
- Condition Set: HCC 2998, 48 h
State just the number; it will be interpreted in nM.

- Molecule: "COc1cccc(C2C(C#N)=C(N)Oc3cc(OC)ccc32)c1 (centres undefined)"
  Unit Annotation: "nM"
  GI50: 51.5
- Molecule: "COc1cc(C2C(C#N)=C(N)Oc3cc(O)ccc32)cc(OC)c1OC (centres undefined)"
  Unit Annotation: "nM"
  GI50: 975
- Molecule: "COc1cccc(C2C(C#N)=C(N)Oc3cc4c(cc32)OCO4)c1 (centres undefined)"
  Unit Annotation: "nM"
  GI50: 101

// below: GI50 requested for another molecule
Entry COc1ccc2c(c1)OC(N)=C(C#N)C2c1cc(OC)c(OC)c(OC)c1 (racemic) needs its GI50 filled in; supply it.
28.2

---

- Tested on: MCF7
- Test Details: Growth inhibition of human MCF7 cells after 48 hrs by sulforhodamine B assay
- Type: functional
- Condition Set: MCF7, 48 h
Recorded GI50 for the following molecules
State just the number; it will be interpreted in µM.

- Molecule: "COc1cccc(C2C(C#N)=C(N)Oc3cc(OC)ccc32)c1 (centres undefined)"
  Observed: 0.0171

Send back MCF7 GI50 of COc1ccc2c(c1)OC(N)=C(C#N)C2c1cc(OC)c(OC)c(OC)c1 (racemic) only.
0.0342

Send back MCF7 GI50 of COc1cc(C2C(C#N)=C(N)Oc3cc(O)ccc32)cc(OC)c1OC (centres undefined) only.
0.324

Send back MCF7 GI50 of COc1cccc(C2C(C#N)=C(N)Oc3cc4c(cc32)OCO4)c1 (centres undefined) only.
0.0364

---

Recorded EC for the following compounds
- Tested on: Paracentrotus lividus
- Test Details: Antimitotic microtubule destabilizing activity in Paracentrotus lividus L embryos assessed as induction of cleavage alteration
State just the number; it will be interpreted in µM.

Some compounds with known EC results, for comparison:
- Compound: "COc1cc(C2C(C#N)=C(N)Oc3cc(O)ccc32)cc2c1OCCO2 (stereo unspecified)"
  Measured On: "Paracentrotus lividus"
  Observed: 1
- Compound: "COc1ccc2c(c1)OC(N)=C(C#N)C2c1cc(N)c2c(c1)OCCO2 (stereo unspecified)"
  Measured On: "Paracentrotus lividus"
  Observed: 0.1
- Compound: "N#CC1=C(N)Oc2cc(O)ccc2C1c1cc2c(c([N+](=O)[O-])c1)OCCO2 (stereo unspecified)"
  Measured On: "Paracentrotus lividus"
  Observed: 4
- Compound: "COc1ccc2c(c1)OC(N)=C(C#N)C2c1cc(OC)c2c(c1)OCO2 (stereo unspecified)"
  Measured On: "Paracentrotus lividus"
  Observed: 0.005
- Compound: "N#CC1=C(N)Oc2cc(O)ccc2C1c1ccccc1I (stereo unspecified)"
  Measured On: "Paracentrotus lividus"
  Observed: 4
- Compound: "CCOc1ccccc1C1C(C#N)=C(N)Oc2cc(OC)ccc21 (stereo unspecified)"
  Measured On: "Paracentrotus lividus"
  Observed: 0.02

Entry COc1cc(C2C(C#N)=C(N)Oc3cc4c(cc32)OCO4)cc2c1OCO2 (stereo unspecified) needs its EC filled in; supply it.
0.005

Entry N#CC1=C(N)Oc2cc(O)ccc2C1c1ccccc1 (stereo unspecified) needs its EC filled in; supply it.
0.5

Entry COc1ccc2c(c1)OC(N)=C(C#N)C2c1cc(OC)c2c(c1OC)OCO2 (stereo unspecified) needs its EC filled in; supply it.
0.1

Entry COc1ccc2c(c1)OC(N)=C(C#N)C2c1cc(OC)c2c(c1)OCCO2 (stereo unspecified) needs its EC filled in; supply it.
0.005

Entry `COc1cccc([C@H]2C(C#N)=C(N)Oc3cc(OC)ccc32)c1` needs its EC filled in; supply it.
0.001
